Hello, the source for this data is PubChem BioAssay, in case you need it.

assay: VP16 transactivation reporter inhibitors, counter-screen for LRH-1 inverse agonist project, cell-based, luminescence, high throughput (AID 651615); details: Gal4-VP16 luciferase reporter cells, at 3.6 µM, hits give high values
experimentalEndpoint: inhibition (%)
Write the number in % without appending the unit.

[[record]]
structuresmilesstring = "O=C(NC(Nc1nc2ccc([N+](=O)[O-])cc2s1)(C(F)(F)F)C(F)(F)F)c1cccnc1"
experimentalendpoint = "inhibition"
measured = 88.7

[[record]]
structuresmilesstring = "S=C(NCCc1ccccc1)Nc1cccc2cnccc12"
experimentalendpoint = "inhibition"
measured = 42.3

[[record]]
structuresmilesstring = "Fc1ccc(NC(=S)N2CCCN(c3ccc(C(F)(F)F)cn3)CC2)c(F)c1"
experimentalendpoint = "inhibition"
measured = 51.6


**Q:** What measured inhibition goes with `CCCCCCCN(C(=O)CCl)c1ccccc1C` ?
**A:** -8.25

**Q:** Could you do the same for `COc1ccc(OC)c2nc3c(C(=O)NCCN(C)C)cccc3nc12` , please?
**A:** 75.7

**Q:** Could you do the same for `CCOc1ccc(NC(=O)CSc2nc3[nH]ncc3c(=O)[nH]2)cc1` , please?
**A:** -6.78

---

test system: transactivating tegument protein VP16 (Human herpesvirus 1); assay: VP16 transactivation reporter inhibitors, counter-screen for SRC2 inhibitor project, cell-based, luminescence, single concentration (AID 652007); conditions: cell-based VP16 transactivation luciferase reporter, at 8.9 µM, hits give high values
experimentalEndpoint: inhibition (%)
Write the number in % without appending the unit.

[[record]]
compound = "CCCCOc1ccc(C2(C)NC(=O)NC2=O)cc1 (configuration not stated)"
measured = -7.32

[[record]]
compound = "O=C(Nc1nc2cc3c(cc2s1)OCO3)C1=COCCO1"
measured = 26.7

[[record]]
compound = "C=C(C(=O)c1ccccc1)C(NC(C)(C)C)c1ccccc1 (configuration not stated)"
measured = 78.7

[[record]]
compound = "COc1cccc(NC(=O)Nc2nnc(CC(=O)NCc3ccccc3)s2)c1"
measured = -17.5


**Q:** What measured inhibition goes with `CCc1nnc(NC(=O)c2nc(S(=O)(=O)Cc3ccc(C)cc3)ncc2Cl)s1` ?
**A:** 48.1

**Q:** Could you do the same for `O=c1c(Br)ccc(Br)cc1Br` , please?
**A:** 97.7

**Q:** Could you do the same for `Clc1ccccc1/C=C/c1nc(-c2ccccn2)no1` , please?
**A:** -11.4

---

test: StAR promoter reporter inhibitors, counter-screen for LRH-1 inverse agonist project, cell-based, luminescence, high throughput (AID 651611); details: StAR promoter luciferase reporter counterscreen, at 3.6 µM, hits give high values
# inhibition per entry
Write the number in % without appending the unit.

[[record]]
molecule = "O=C(c1ccc([N+](=O)[O-])s1)N1CCN(c2ncccn2)CC1"
measured = 1.48

[[record]]
molecule = "Cc1ccc(S(=O)(=O)CC2CSc3nc4ccccc4n32)cc1 (stereo not drawn)"
measured = 22.6


**Q:** What measured inhibition goes with `CC(C)=NOc1cc(NC(=O)CCl)cc([N+](=O)[O-])c1` ?
**A:** 37.5

---

# inhibition per entry
molecular target: Nuclear receptor coactivator 1 (Homo sapiens); assay: SRC1 coactivator transcriptional activity inhibitors, confirmation, cell-based, luminescence, quadruplicate (AID 588820); settings: HEK293 GAL4-SRC1 luciferase reporter, at 3.6 µM, hits give high values;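 note: 0% = DMSO wells and 100% = gossypol 36 µM treated wells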
Write the number in % without appending the unit.

Below: 5 molecules and their reported inhibition.
[[record]]
molecule = "NS(=O)(=O)c1ccc(Nc2nc(-c3cccnc3)cs2)cc1"
unitstring = "%"
measured = 15.8

[[record]]
molecule = "COc1cccc2nc3c(C(=O)NCCN(C)C)cccc3cc12"
unitstring = "%"
measured = 46.5

[[record]]
molecule = "O=C(O)CN1C(=O)/C(=C\\c2ccccc2OCc2ccc(Cl)cc2Cl)SC1=S"
unitstring = "%"
measured = 32

[[record]]
molecule = "OC(CN1CCN(c2cccc(Cl)c2)CC1)c1ccccc1 (stereo unspecified)"
unitstring = "%"
measured = -16.2

[[record]]
molecule = "CN(C)CC1CCC/C(=C\\c2ccc(OC(=O)c3ccc(Cl)cc3)cc2)C1=O (stereo unspecified)"
unitstring = "%"
measured = 29.9


Here is another molecule to look at.
**Q:** Tell me reported inhibition for `COCCn1c(C)cc(C2=NNC(=NC3CC3)SC2)c1C` , tested with Nuclear receptor coactivator 1 (Homo sapiens).
**A:** 85.7

---

# inhibition per entry
target: Nuclear receptor coactivator 1 (Homo sapiens) (UniProt Q15788); test: SRC1 coactivator transcriptional activity inhibitors, confirmation, cell-based, luminescence, quadruplicate (AID 588820); details: HEK293 GAL4-SRC1 luciferase reporter, at 3.6 µM, hits give high values;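 note: 0% = DMSO wells and 100% = gossypol 36 µM treated wells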
Sequence (Q15788 whole entry, looked up, the tested form may be a part): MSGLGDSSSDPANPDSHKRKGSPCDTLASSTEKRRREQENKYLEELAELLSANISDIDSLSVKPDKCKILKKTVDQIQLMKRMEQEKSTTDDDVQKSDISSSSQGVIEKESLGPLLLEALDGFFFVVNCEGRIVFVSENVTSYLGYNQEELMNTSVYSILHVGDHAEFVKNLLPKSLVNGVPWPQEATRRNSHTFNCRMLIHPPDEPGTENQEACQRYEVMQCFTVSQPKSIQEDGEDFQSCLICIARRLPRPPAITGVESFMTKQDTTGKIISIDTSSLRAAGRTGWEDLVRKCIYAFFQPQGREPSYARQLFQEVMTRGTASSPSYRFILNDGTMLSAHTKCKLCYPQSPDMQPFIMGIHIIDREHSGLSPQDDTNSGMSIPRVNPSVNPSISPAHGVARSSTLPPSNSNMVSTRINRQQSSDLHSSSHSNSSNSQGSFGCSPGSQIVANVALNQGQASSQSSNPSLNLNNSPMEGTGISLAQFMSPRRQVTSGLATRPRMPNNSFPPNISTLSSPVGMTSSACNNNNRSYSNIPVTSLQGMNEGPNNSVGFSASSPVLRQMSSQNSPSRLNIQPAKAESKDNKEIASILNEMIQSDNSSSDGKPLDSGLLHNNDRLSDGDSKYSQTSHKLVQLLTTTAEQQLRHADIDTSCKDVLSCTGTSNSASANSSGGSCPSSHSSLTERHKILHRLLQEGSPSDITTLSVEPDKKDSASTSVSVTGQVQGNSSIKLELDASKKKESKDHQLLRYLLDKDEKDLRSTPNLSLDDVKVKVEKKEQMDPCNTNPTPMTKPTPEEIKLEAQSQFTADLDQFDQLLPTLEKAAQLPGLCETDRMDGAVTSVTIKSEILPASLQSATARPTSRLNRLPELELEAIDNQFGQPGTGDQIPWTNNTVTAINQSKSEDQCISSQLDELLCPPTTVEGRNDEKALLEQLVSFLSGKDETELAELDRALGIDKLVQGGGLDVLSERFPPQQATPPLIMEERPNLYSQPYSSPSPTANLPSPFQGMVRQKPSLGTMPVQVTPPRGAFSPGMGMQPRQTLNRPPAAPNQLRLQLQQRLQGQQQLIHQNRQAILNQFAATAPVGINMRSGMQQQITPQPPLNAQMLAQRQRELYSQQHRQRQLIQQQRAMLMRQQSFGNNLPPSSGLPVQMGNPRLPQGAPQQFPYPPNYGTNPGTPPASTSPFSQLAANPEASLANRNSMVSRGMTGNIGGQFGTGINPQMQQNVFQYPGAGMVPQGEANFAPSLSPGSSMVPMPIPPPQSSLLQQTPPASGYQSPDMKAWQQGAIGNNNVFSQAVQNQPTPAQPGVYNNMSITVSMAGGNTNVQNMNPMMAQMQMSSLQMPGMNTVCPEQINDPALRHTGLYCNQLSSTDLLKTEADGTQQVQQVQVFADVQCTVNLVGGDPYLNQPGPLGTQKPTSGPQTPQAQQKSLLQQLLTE
Calls of active or inactive are those of the source.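 How the source made its calls: active means mean inhibition above 46.68%, the untreated control wells mean plus 3 SD; inactive means the rest.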

Below: 3 compounds and their reported inhibition.
[[record]]
structuresmilesstring = "CC(=C\\c1ccccc1)/C=C1/SC(=S)N(CCC(=O)O)C1=O"
experimentalendpoint = "inhibition"
measured = "-20.4% (inactive)"

[[record]]
structuresmilesstring = "COc1ccc(CCNc2c3ccccc3nc3ccccc23)cc1OC"
experimentalendpoint = "inhibition"
measured = "-6.86% (inactive)"

[[record]]
structuresmilesstring = "Cc1cc(C)c2nc3nc(C)c(C)cc3c(N)c2c1"
experimentalendpoint = "inhibition"
measured = "5.02% (inactive)"


Here is another compound to look at.
**Q:** What measured inhibition goes with `Nc1ncnc(NCc2ccccc2)c1[N+](=O)[O-]` ?
**A:** 38.1% (inactive)

---

tested on: transactivating tegument protein VP16 (Human herpesvirus 1), Gal4-VP16 luciferase reporter; assay: VP16 transactivation inhibitors, counter-screen for SRC3 inhibitor project, cell-based, luminescence, high throughput (AID 588794); details: mammalian cells, VP16-driven luciferase reporter luminescence; at 3.6 µM
Active and inactive are the calls of the source. Rule as the data show it: active = inhibition above about 30%; inactive = the rest.
Respond using exactly one of the listed classes: active, inactive

[[record]]
structuresmilesstring = "CC(C)(C)NCC(=Cc1ccccc1)C(=O)c1ccccc1"
grouplabel = "active"


**Q:** Any idea what this test logged for `Cc1nn(-c2ccccc2)c(Cl)c1C(=O)N1CCN(c2ncnc3c2cnn3-c2ccccc2)CC1` ?
**A:** active

**Q:** Could you do the same for `Cc1nc2cc(F)ccc2n1C1CCN(S(=O)(=O)c2ccccc2)CC1` , please?
**A:** inactive

---

system: transactivating tegument protein VP16 (Human herpesvirus 1), Gal4-VP16 luciferase reporter; assay: VP16 transactivation inhibitors, counter-screen for SRC3 inhibitor project, cell-based, luminescence, high throughput (AID 588794); conditions: mammalian cells, VP16-driven luciferase reporter luminescence; at 3.6 µM; hits give high values
# inhibition per entry
Write the number in % without appending the unit.

**Q:** What measured inhibition goes with `NC(=S)NN=C1c2cc(OCCN3CCOCC3)ccc2-c2ccc(OCCN3CCOCC3)cc21` ?
**A:** 68.8

**Q:** Could you do the same for `CN(C)c1cc[n+](CC(=O)c2ccc(-c3ccccc3)cc2)cc1` , please?
**A:** 57.6

**Q:** Could you do the same for `Cc1ccc(S(=O)(=O)N2C[C@H]3C(=O)C[C@@H](c4ccccc4)N(S(=O)(=O)c4ccc(C)cc4)[C@H]3C[C@H]2c2ccccc2F)cc1` , please?
**A:** 2.52

**Q:** Could you do the same for `COc1ccc(-n2c(C)c([N+](=O)[O-])c3ccc(O)c(CN4CCCCC4)c32)cc1` , please?
**A:** 30.5

**Q:** Could you do the same for `O=C(c1ccccc1)c1nn(-c2ccc(Cl)cc2)c(=O)cc1C(F)(F)F` , please?
**A:** 62.6

**Q:** Could you do the same for `Cc1cc(C)nc(/N=C(\N)Nc2ccc(-c3ccccc3)cc2)n1` , please?
**A:** 33.3

**Q:** Could you do the same for CC1(C)CC2CC(C)(CN2S(=O)(=O)c2ccc(C(=O)Nc3ccc(S(=O)(=O)N4CCOCC4)cc3)cc2)C1 (stereo not drawn) , please?
**A:** 42.4

**Q:** Could you do the same for `C[n+]1c2n(c3ccccc31)N=C(c1ccc(Br)cc1)CS2` , please?
**A:** 24.7

---

biological target: Nuclear receptor coactivator 2 (Homo sapiens); test: SRC2 coactivator transcriptional activity inhibitors, confirmation, cell-based, luminescence, HEK293, triplicate (AID 652008); conditions: HEK293 GAL4-SRC2 luciferase reporter, at 8.9 µM, hits give high values;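 note: 0% = DMSO-treated cells and 100% = Gossypol at 36 µM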
# inhibition per entry
Write the number in % without appending the unit.

[[record]]
molecule = "COC(=O)c1ccc2c(=O)n(CCCCCC(=O)O)c(=S)[nH]c2c1"
studytarget = "Nuclear receptor coactivator 2 (Homo sapiens)"
experimentalendpoint = "inhibition"
measured = 32.2

[[record]]
molecule = "Cc1ccc(C(=O)N/N=C/c2c(O)ccc3ccccc23)cn1"
studytarget = "Nuclear receptor coactivator 2 (Homo sapiens)"
experimentalendpoint = "inhibition"
measured = 33.4

[[record]]
molecule = "Cc1cccc2sc(N(CCCN(C)C)C(=O)CCS(=O)(=O)c3ccccc3)nc12"
studytarget = "Nuclear receptor coactivator 2 (Homo sapiens)"
experimentalendpoint = "inhibition"
measured = 32.5


**Q:** Tell me reported inhibition for Cc1ccc(C2(CCNCc3ccco3)CCOC(C(C)C)C2)cc1 (centres undefined) , tested with Nuclear receptor coactivator 2 (Homo sapiens).
**A:** -20.8

**Q:** Could you do the same for `Brc1ccc2ncnc(NCc3ccccc3)c2c1` , please?
**A:** 54.5
